Where do the numbers come from? From ChEMBL document CHEMBL4325928.

assay: Efflux ratio of permeability from basolateral side to apical side over apical side to basolateral side in human Caco2 cells expressing p-gp at 3 uM incubated for 2 hrs by LC-MS/MS analysis; type: ADME, cell-based; details: Caco-2
Entries and their efflux ratio at 2 h, 3 µM values follow.
experimentalReadout: efflux ratio at 2 h, 3 µM

> print(dat)
                             moleculesmiles        experimentalreadout  relationaloperator  endpointresult
1  CCN(c1cc2oc(-c3ccc(F)cc3)c(C(=O)NC)c2cc1-c1cc(F)c(OC)c(C(=O)NC2(c3ncccn3)CC2)c1)S(C)(=O)=O  efflux ratio at 2 h, 3 µM                   =            13.8
2  CCN(c1cc2oc(-c3ccc(F)cc3)c(C(=O)NC)c2cc1-c1cccc(C(=O)NC2(c3ncccn3)CC2)c1)S(C)(=O)=O  efflux ratio at 2 h, 3 µM                   >             8.6
3  CCN(C(=O)C(F)(F)F)c1cc2oc(-c3ccc(F)cc3)c(C(=O)NC)c2cc1-c1ccc(OC)c(C(=O)NC2(c3ncccn3)CC2)c1  efflux ratio at 2 h, 3 µM                   =             2.7
4  CCN(C(=O)OC)c1cc2oc(-c3ccc(F)cc3)c(C(=O)NC)c2cc1-c1ccc(OC)c(C(=O)NC2(c3ncccn3)CC2)c1  efflux ratio at 2 h, 3 µM                   =             9.6
5  CCN(C(=O)N(C)C)c1cc2oc(-c3ccc(F)cc3)c(C(=O)NC)c2cc1-c1ccc(OC)c(C(=O)NC2(c3ncccn3)CC2)c1  efflux ratio at 2 h, 3 µM                   =            24.1
6  CCN(c1cc2oc(-c3ccc(F)cc3)c(C(=O)NC)c2cc1-c1cc(F)c(F)c(C(=O)NC2(c3ncccn3)CC2)c1)S(C)(=O)=O  efflux ratio at 2 h, 3 µM                   =             7.8
7  CCN(c1cc2oc(-c3ccc(F)cc3)c(C(=O)NC)c2cc1-c1cc(C)c(OC)c(C(=O)NC2(c3ncccn3)CC2)c1)S(C)(=O)=O  efflux ratio at 2 h, 3 µM                   =             9.8

###

experiment: Permeability across apical side to basolateral side in human Caco2 cells expressing p-gp at 3 uM incubated for 2 hrs by LC-MS/MS analysis; type: ADME, cell-based; conditions: Caco-2, read-out: permeability
Reported Papp A→B at 2 h, 3 µM is given for each of the following compounds.
experimentalReadout: Papp A→B at 2 h, 3 µM (×10⁻⁶ cm/s)

> print(dat)
                              moleculesmiles    experimentalreadout  relationaloperator  endpointresult
 1  CCN(c1cc2oc(-c3ccc(F)cc3)c(C(=O)NC)c2cc1-c1ccc(OC)c(C(=O)NC2(c3ncccn3)CC2)c1)S(C)(=O)=O  Papp A→B at 2 h, 3 µM                   <             1.5
 2  CCN(c1cc2oc(-c3ccc(F)cc3)c(C(=O)NC)c2cc1-c1cc(C)c(OC)c(C(=O)NC2(c3ncccn3)CC2)c1)S(C)(=O)=O  Papp A→B at 2 h, 3 µM                   =             3.3
 3  CCN(c1cc2oc(-c3ccc(F)cc3)c(C(=O)NC)c2cc1-c1cc(Cl)c(OC)c(C(=O)NC2(c3ncccn3)CC2)c1)S(C)(=O)=O  Papp A→B at 2 h, 3 µM                   =             5.2
 4  CCN(C(=O)N(C)C)c1cc2oc(-c3ccc(F)cc3)c(C(=O)NC)c2cc1-c1ccc(OC)c(C(=O)NC2(c3ncccn3)CC2)c1  Papp A→B at 2 h, 3 µM                   =               2
 5  CCN(C(=O)C(F)(F)F)c1cc2oc(-c3ccc(F)cc3)c(C(=O)NC)c2cc1-c1ccc(OC)c(C(=O)NC2(c3ncccn3)CC2)c1  Papp A→B at 2 h, 3 µM                   =             4.2
 6  CCN(c1cc2oc(-c3ccc(F)cc3)c(C(=O)NC)c2cc1-c1cc(F)c(OC)c(C(=O)NC2(c3ncccn3)CC2)c1)S(C)(=O)=O  Papp A→B at 2 h, 3 µM                   =             2.9
 7  CCN(c1cc2oc(-c3ccc(F)cc3)c(C(=O)NC)c2cc1-c1cccc(C(=O)NC2(c3ncccn3)CC2)c1)S(C)(=O)=O  Papp A→B at 2 h, 3 µM                   <             1.5
 8  CCN(c1cc2oc(-c3ccc(F)cc3)c(C(=O)NC)c2cc1-c1cc(F)c(F)c(C(=O)NC2(c3ncccn3)CC2)c1)S(C)(=O)=O  Papp A→B at 2 h, 3 µM                   =             7.9
 9  CCN(C(C)=O)c1cc2oc(-c3ccc(F)cc3)c(C(=O)NC)c2cc1-c1ccc(OC)c(C(=O)NC2(c3ncccn3)CC2)c1  Papp A→B at 2 h, 3 µM                   <             1.5
10  CCNc1cc2oc(-c3ccc(F)cc3)c(C(=O)NC)c2cc1-c1ccc(OC)c(C(=O)NC2(c3ncccn3)CC2)c1  Papp A→B at 2 h, 3 µM                   =            23.2
11  CCN(C(=O)OC)c1cc2oc(-c3ccc(F)cc3)c(C(=O)NC)c2cc1-c1ccc(OC)c(C(=O)NC2(c3ncccn3)CC2)c1  Papp A→B at 2 h, 3 µM                   =             2.4

###

assay: Half life in rat liver microsomes; assay type: ADME, Microsome
experimentalReadout: half-life

> print(dat)
                             moleculesmiles  endpointresult
1  CCNc1cc2oc(-c3ccc(F)cc3)c(C(=O)NC)c2cc1-c1ccc(OC)c(C(=O)NC2(c3ncccn3)CC2)c1          39 min
2  CCN(c1cc2oc(-c3ccc(F)cc3)c(C(=O)NC)c2cc1-c1cc(Cl)c(OC)c(C(=O)NC2(c3ncccn3)CC2)c1)S(C)(=O)=O          26 min
3  CCN(c1cc2oc(-c3ccc(F)cc3)c(C(=O)NC)c2cc1-c1ccc(OC)c(C(=O)NC2(c3ncccn3)CC2)c1)S(C)(=O)=O       > 120 min
4  CCN(c1cc2oc(-c3ccc(F)cc3)c(C(=O)NC)c2cc1-c1cccc(C(=O)NC2(c3ncccn3)CC2)c1)S(C)(=O)=O          49 min

###

assay: Half life in human liver microsomes; assay type: ADME, Microsome
Quick reference: half-life of the listed items.
experimentalReadout: half-life (min)

> print(dat)
                             moleculesmiles  relationaloperator  endpointresult
1  CCN(c1cc2oc(-c3ccc(F)cc3)c(C(=O)NC)c2cc1-c1ccc(OC)c(C(=O)NC2(c3ncccn3)CC2)c1)S(C)(=O)=O                   =              91
2  CCNc1cc2oc(-c3ccc(F)cc3)c(C(=O)NC)c2cc1-c1ccc(OC)c(C(=O)NC2(c3ncccn3)CC2)c1                   =              36
3  CCN(c1cc2oc(-c3ccc(F)cc3)c(C(=O)NC)c2cc1-c1cccc(C(=O)NC2(c3ncccn3)CC2)c1)S(C)(=O)=O                   >             120
4  CCN(c1cc2oc(-c3ccc(F)cc3)c(C(=O)NC)c2cc1-c1cc(Cl)c(OC)c(C(=O)NC2(c3ncccn3)CC2)c1)S(C)(=O)=O                   =            13.9

###

Below is a list of entries, each paired with its recorded efflux ratio at 2 h, 3 µM value.
assay: Efflux ratio of permeability from basolateral side to apical side over apical side to basolateral side in human Caco2 cells expressing p-gp at 3 uM incubated for 2 hrs by LC-MS/MS analysis; assay type: ADME, cell-based; settings: Caco-2
experimentalReadout: efflux ratio at 2 h, 3 µM

> print(dat)
                             moleculesmiles  endpointresult
1  CCN(c1cc2oc(-c3ccc(F)cc3)c(C(=O)NC)c2cc1-c1ccc(OC)c(C(=O)NC2(c3ncccn3)CC2)c1)S(C)(=O)=O          > 12.4
2  CCN(C(C)=O)c1cc2oc(-c3ccc(F)cc3)c(C(=O)NC)c2cc1-c1ccc(OC)c(C(=O)NC2(c3ncccn3)CC2)c1          > 20.5
3  CCN(c1cc2oc(-c3ccc(F)cc3)c(C(=O)NC)c2cc1-c1cc(Cl)c(OC)c(C(=O)NC2(c3ncccn3)CC2)c1)S(C)(=O)=O             2.2
4  CCNc1cc2oc(-c3ccc(F)cc3)c(C(=O)NC)c2cc1-c1ccc(OC)c(C(=O)NC2(c3ncccn3)CC2)c1             0.8
